# assay explanation: Solubility of Compound B in soy oil, estimated visually
# Format: physicochemical
# condition description: oil or lipid, thermodynamic from solid; visual estimate by gradual addition of soy oil
measured metric: solubility

// Cn1c2ccc(F)cc2c2c(C(=O)N3CCCC3)cn(-c3ccccc3)c(=O)c21 : solubility value = < 1000 µg/mL
